Assign IC50 to each entry below.
- measured_on: recombinant human STIM1 and Orai1 (HEK-293 cells) (Homo sapiens)
- Construct: c-myc (C); expressed in transfected cells; host or cells: HEK-293
- protocol_notes: Fluorescence-based assay of store-operated calcium entry in Orai1/STIM1 stable cells
- Type: cell-based
- experimental_parameters: concentration that inhibited 50% of the Peak-Basal fluorescence signal; 30 min compound incubation; read-out: IC50(μM) JR251

{"columns": ["smiles_data", "measured_value"],
 "data": [
  ["O=C(Nc1scc(-c2ccc(Cl)cc2)c1C(=O)O)c1nc2cccc(Cl)c2s1", "0.5 to 1 µM"],
  ["COc1cccc2sc(C(=O)Nc3scc(-c4ccc(Cl)cc4)c3C(=O)O)nc12", "≤ 0.5 µM"],
  ["O=C(Nc1scc(-c2ccc(Cl)cc2F)c1C(=O)O)c1nc2c(F)cccc2s1", "0.5 to 1 µM"],
  ["Nc1cccc2nc(C(=O)Nc3scc(-c4ccc(Cl)cc4)c3C(=O)O)sc12", "≤ 0.5 µM"],
  ["Cc1ccc(-c2csc(NC(=O)c3cc(F)cc(F)c3O)c2C(=O)O)c(F)c1F", "≤ 0.5 µM"],
  ["Cc1ccc(-c2csc(NC(=O)c3nc4ccc(F)cc4s3)c2C(=O)O)c(F)c1", "0.5 to 1 µM"]
]}

Below is a list of compounds. For each, state its recorded IC50.
1. Cc1ccc(-c2csc(NC(=O)c3cc4cccc(C)n4n3)c2C(=O)O)c(F)c1
2. O=C(Nc1scc(-c2ccc(Cl)cc2)c1C(=O)O)c1cc2c(F)cc(F)cn2n1

Result:
≤ 0.5 µM
1 to 10 µM

###

- measured_on: recombinant human STIM1 and Orai1 (HEK-293 cells) (Homo sapiens, UniProt Q96D31)
- Construct: c-myc (C); expressed in transfected cells; host or cells: HEK-293
- Sequence (Q96D31 whole entry): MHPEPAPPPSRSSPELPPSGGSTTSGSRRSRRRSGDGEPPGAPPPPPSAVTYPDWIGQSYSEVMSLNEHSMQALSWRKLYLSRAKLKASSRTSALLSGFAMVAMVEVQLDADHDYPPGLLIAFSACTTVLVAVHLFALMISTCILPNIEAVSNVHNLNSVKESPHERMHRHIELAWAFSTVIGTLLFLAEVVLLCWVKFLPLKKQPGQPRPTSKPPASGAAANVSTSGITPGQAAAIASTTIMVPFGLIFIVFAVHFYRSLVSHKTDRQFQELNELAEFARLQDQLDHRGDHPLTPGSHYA
- protocol_notes: Fluorescence-based assay of store-operated calcium entry in Orai1/STIM1 stable cells
- Assay type: cell-based
- experimental_parameters: concentration that inhibited 50% of the Peak-Basal fluorescence signal; 30 min compound incubation; read-out: IC50(μM) JR251
- Protocol: A. Fluorescence-based Assay of Store-Operated Calcium Entry in Orai1/STIM1 Stable Cells. […] The day prior to performing the assay Orai1/STIM1 stable cells were plated in 50 μL of complete medium at 90-95% confluence in a 384 well plate. […] The initial baseline fluorescence signal was then measured with a FLIPR^384 (Molecular Devices) plate reader. Calcium entry was initiated by adding 5 μl of 10× CaCl2 (10 mM) in HBSS, and changes in cellular fluorescence were measured with the FLIPR^384 plate reader. […]
Assign IC50 to each entry below.

{"columns": ["smiles_data", "IC50"],
 "data": [
  ["COc1ccc2sc(C(=O)Nc3scc(-c4ccc(Cl)cc4)c3C(=O)O)nc2c1", "0.5 to 1 µM"]
]}

Below is a list of compounds. For each, state its recorded IC50.
1. Cc1ccc(-c2csc(NC(=O)c3nc4cccc(N)c4s3)c2C(=O)O)c(F)c1F
2. Cc1ccc(-c2csc(NC(=O)c3ccc(F)c(F)c3O)c2C(=O)O)c(F)c1F
3. COc1cccc2cc(C(=O)Nc3scc(-c4ccc(Cl)cc4)c3C(=O)O)nn12

Result:
0.5 to 1 µM
≤ 0.5 µM
0.5 to 1 µM
